- Measured on: CK1α (Homo sapiens, UniProt P48729+Q96SW2)
- Construct: CSNK1A1-HiBit KI HEK293(LgBit) Cells; host or cells: HEK293(LgBit) knock-in cells
- Sequence (P48729 whole entry): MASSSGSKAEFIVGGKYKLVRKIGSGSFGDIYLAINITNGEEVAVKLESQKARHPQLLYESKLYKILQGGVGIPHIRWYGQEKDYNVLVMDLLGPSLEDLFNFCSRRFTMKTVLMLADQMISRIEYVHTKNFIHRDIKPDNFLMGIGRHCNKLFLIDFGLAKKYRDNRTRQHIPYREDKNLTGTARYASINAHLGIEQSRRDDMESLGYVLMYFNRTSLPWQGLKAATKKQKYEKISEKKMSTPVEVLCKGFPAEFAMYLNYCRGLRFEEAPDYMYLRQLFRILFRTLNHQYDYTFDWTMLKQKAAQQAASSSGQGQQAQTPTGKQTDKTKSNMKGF
- Sequence (Q96SW2 whole entry): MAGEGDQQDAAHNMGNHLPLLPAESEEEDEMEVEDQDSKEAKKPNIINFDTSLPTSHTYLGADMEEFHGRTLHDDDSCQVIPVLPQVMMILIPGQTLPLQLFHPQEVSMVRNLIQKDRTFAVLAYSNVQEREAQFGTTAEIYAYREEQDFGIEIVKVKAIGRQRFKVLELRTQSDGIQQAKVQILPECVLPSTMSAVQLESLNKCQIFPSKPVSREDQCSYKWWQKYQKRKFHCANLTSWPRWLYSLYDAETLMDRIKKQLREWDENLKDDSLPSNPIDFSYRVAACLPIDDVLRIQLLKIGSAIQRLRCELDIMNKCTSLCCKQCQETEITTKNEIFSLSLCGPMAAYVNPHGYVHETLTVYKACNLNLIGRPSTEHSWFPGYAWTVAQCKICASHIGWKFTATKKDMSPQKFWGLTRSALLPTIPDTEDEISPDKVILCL
- Sequence (Q16531 whole entry partner): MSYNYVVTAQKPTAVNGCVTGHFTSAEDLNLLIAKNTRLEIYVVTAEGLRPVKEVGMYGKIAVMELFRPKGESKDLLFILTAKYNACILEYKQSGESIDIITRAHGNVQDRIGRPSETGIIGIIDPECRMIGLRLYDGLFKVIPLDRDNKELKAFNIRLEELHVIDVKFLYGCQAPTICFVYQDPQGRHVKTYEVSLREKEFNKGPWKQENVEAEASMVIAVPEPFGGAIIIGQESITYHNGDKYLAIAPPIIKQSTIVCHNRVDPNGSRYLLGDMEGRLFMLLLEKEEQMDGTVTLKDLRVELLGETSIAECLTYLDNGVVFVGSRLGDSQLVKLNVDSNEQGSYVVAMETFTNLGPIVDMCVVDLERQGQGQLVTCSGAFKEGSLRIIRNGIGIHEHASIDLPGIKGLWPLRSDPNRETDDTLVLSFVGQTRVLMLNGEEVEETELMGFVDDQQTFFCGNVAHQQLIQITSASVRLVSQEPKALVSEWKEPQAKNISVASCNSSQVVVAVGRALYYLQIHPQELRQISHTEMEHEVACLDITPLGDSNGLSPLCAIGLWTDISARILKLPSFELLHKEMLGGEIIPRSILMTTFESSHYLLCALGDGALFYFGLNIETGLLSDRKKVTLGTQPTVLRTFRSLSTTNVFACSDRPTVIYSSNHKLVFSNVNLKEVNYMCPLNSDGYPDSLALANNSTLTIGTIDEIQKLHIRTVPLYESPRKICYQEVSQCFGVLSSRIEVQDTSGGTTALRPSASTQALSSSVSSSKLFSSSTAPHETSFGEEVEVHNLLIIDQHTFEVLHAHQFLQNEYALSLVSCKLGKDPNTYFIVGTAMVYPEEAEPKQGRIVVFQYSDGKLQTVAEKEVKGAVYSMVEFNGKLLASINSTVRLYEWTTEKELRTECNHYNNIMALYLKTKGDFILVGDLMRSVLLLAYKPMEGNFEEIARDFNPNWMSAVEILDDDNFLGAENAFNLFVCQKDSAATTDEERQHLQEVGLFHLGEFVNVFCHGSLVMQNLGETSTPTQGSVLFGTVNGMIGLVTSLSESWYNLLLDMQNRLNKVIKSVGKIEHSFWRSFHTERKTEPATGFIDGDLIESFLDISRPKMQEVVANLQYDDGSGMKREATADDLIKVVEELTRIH
- Assay method text: HiBiT degradation assay, CK1α, Procedure A
- Assay type: cell-based
- Assay setup: six hours incubation
Recorded DC50 values for a group of compounds are listed next.

Examples with their reported DC50 follow.
Cc1c(-c2ccccc2)c(-c2ccc3c(c2)CN(C2CCC(=O)NC2=O)C3=O)nn1C (stereo not shown) [Example 17] : < 25 nM
Cc1ccc(-c2c(-c3ccc4c(c3)CN(C3CCC(=O)NC3=O)C4=O)ncn2C)cc1CO (stereo not shown) [Example 252] : < 25 nM
CN(C)C(=O)c1ccc(-c2c(-c3ccc4c(c3)CN(C3CCC(=O)NC3=O)C4=O)cnn2C)cc1 (stereo not shown) [Example 121] : ≥ 25 nM

Let us move to another entry and its DC50.
Check the records and state DC50 for Cn1c(C(F)(F)F)nc(-c2ccc3c(c2)CN(C2CCC(=O)NC2=O)C3=O)c1-c1ccccc1 (stereo not shown) [Example 52] < 25 nM
